Readings of Kd for the listed binders
- study system: PU.1 (human, UniProt P17947 1-270)
- experiment summary: MST; MST: 20 mM Tris-HCl pH 7.6, 1.5 mM MgCl2, 0.5 mM EGTA, 10% glycerol, 300 mM KCl, 10 mM DTT, 25 C; 50 nM Cy3-dsDNA, PU.1 1:1 dilutions from 23 uM
- test settings: protein: recombinant; tags: N-terminal His-tag; label: Cy3 on upper strand
Please give a number only; it is taken to be in nM.

Here are 10 binders together with their reported answers.
> print(dat)
                                      binder  obs.value
 1  PU.1 motif oligo 32 (dsDNA) DNA 1: ACGTAACTTCCTCCTAACGT DNA 2: ACGTTAGGAGGAAGTTACGT        464
 2  PU.1 motif oligo 64 (dsDNA) DNA 1: ACGTGACTTCCACAATACGT DNA 2: ACGTATTGTGGAAGTCACGT       1220
 3  PU.1 motif oligo 59 (dsDNA) DNA 1: ACGTAACTTCTTCCTTACGT DNA 2: ACGTAAGGAAGAAGTTACGT       1620
 4  PU.1 motif oligo 10 (dsDNA) DNA 1: ACGTCACTTCCTGTTTACGT DNA 2: ACGTAAACAGGAAGTGACGT        175
 5  PU.1 motif oligo 75 (dsDNA) DNA 1: ACGTCAGTTCTGCATTACGT DNA 2: ACGTAATGCAGAACTGACGT       1190
 6  PU.1 motif oligo 63 (dsDNA) DNA 1: ACGTCACTTCCACAGTACGT DNA 2: ACGTACTGTGGAAGTGACGT       1930
 7  PU.1 motif oligo 34 (dsDNA) DNA 1: ACGTCACTTCCTCCCCACGT DNA 2: ACGTGGGGAGGAAGTGACGT        690
 8  PU.1 motif oligo 29 (dsDNA) DNA 1: ACGTGACTTCCTGTTTACGT DNA 2: ACGTAAACAGGAAGTCACGT        361
 9  PU.1 motif oligo 12 (dsDNA) DNA 1: ACGTCACTTCCTTTCTACGT DNA 2: ACGTAGAAAGGAAGTGACGT        588
10  PU.1 motif oligo 47 (dsDNA) DNA 1: ACGTCGCTTCCTCCTCACGT DNA 2: ACGTGAGGAGGAAGCGACGT        757

Next, consider the following binder.
Dear colleague, I am looking for the recorded Kd of the following binder: PU.1 motif oligo 21 (dsDNA) DNA 1: ACGTGAGTTCCTCTTTACGT DNA 2: ACGTAAAGAGGAACTCACGT
298
